# System: Caco-2 cells
# Assay type: cell-based
# MEASUREMENT SETUP: Caco-2, 72 h; fucose 25 mM; acetate, lactate, butyrate 10 mM; glutamine 10 mM
ASSAY ENDPOINT: change in fucosylated glycans / fucosylation

>  <COMPOUND>
CC(=O)O [acetate]

>  <SYSTEM NAME>
Caco-2 cells

>  <RESULT>
significant increase

$$$$
>  <COMPOUND>
CC(O)C(=O)O (stereo not shown) [lactate]

>  <SYSTEM NAME>
Caco-2 cells

>  <RESULT>
significant increase

$$$$
